Tested on: S. aureus ATCC 29213
MEASUREMENT PROTOCOL: Synergy disc diffusion assay (SDDA), also supplemented;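 further: disc diffusion on Mueller-Hinton agar at pH 7.2, aerobic incubation at 37 °C lasting 19-20 h, two compounds assessed jointly for combined antimicrobial effect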
STUDY CONDITIONS: copper salt + TBHQ; unsupplemented

- COMPOUND: "[Br][Cu][Br] [Copper (II) bromide]"
  SDDA area increase [%]: 114.95
- COMPOUND: "[Cl-].[Cu+2].[Cu+2].[OH-].[OH-].[OH-] [Copper (II) oxychloride]"
  SDDA area increase [%]: 69.54
- COMPOUND: "[Cu][Br] [Copper (I) bromide]"
  SDDA area increase [%]: 87.65
- COMPOUND: "CC(=O)Oc1ccccc1C(=O)[O-].CC(=O)Oc1ccccc1C(=O)[O-].CC(=O)Oc1ccccc1C(=O)[O-].CC(=O)Oc1ccccc1C(=O)[O-].[Cu+2].[Cu+2] [Copper (II) aspirinate]"
  SDDA area increase [%]: 191.83
- COMPOUND: "[Cu+].[I-] [Copper (I) iodide]"
  SDDA area increase [%]: 70.25
